Source listed as ChEMBL document CHEMBL3992534.

Listed next: entries and their corresponding Ki.
- assay_system: UniProt P47936
- Sequence (P47936 whole entry): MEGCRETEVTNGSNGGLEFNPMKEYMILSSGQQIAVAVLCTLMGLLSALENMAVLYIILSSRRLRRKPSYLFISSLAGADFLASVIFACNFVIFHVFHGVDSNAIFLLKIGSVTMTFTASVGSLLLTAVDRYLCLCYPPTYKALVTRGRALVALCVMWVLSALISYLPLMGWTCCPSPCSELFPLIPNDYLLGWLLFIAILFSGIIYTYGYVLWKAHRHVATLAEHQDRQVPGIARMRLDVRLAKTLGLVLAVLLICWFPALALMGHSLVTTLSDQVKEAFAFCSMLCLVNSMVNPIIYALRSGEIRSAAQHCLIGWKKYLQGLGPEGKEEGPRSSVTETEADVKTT

Past entries and their recorded results:
compound	assay_system	property_name	obs_value
C/C(N)=N\C(=N/S(=O)(=O)c1ccc(I)cc1)N1CC(c2ccccc2)C(c2ccc(Cl)cc2)=N1 (stereo not drawn)	UniProt P47936	Ki	> 1000 nM
C/C(N)=N\C(=N/S(=O)(=O)c1ccc(C)cc1)N1CC(c2ccccc2)C(c2ccc(Cl)cc2)=N1 (stereo not drawn)	UniProt P47936	Ki	> 1000 nM
C/C(N)=N\C(=N/S(=O)(=O)c1ccc(Br)cc1)N1CC(c2ccccc2)C(c2ccc(Cl)cc2)=N1 (stereo not drawn)	UniProt P47936	Ki	> 1000 nM
CCS/C(N)=N\C(=N/S(=O)(=O)c1ccc(Cl)cc1)N1CC(c2ccccc2)C(c2ccc(Cl)cc2)=N1 (stereo not drawn)	UniProt P47936	Ki	> 1000 nM
C/C(N)=N\C(=N/S(=O)(=O)c1ccc(C(C)C)cc1)N1CC(c2ccccc2)C(c2ccc(Cl)cc2)=N1 (stereo not drawn)	UniProt P47936	Ki	> 1000 nM

Input line: What value of Ki on UniProt P47936 does N/C(=N/C(=N\S(=O)(=O)c1ccc(Cl)cc1)N1CC(c2ccccc2)C(c2ccc(Cl)cc2)=N1)c1cccs1 (stereo not drawn) have?
Output line: > 1000 nM

Input line: Can you handle N/C(=N/C(=N\S(=O)(=O)c1ccc(Cl)cc1)N1CC(c2ccccc2)C(c2ccc(Cl)cc2)=N1)c1ccc(Br)cc1 (stereo not drawn) next?
Output line: > 1000 nM

Input line: Can you handle CC(C)(C)/C(N)=N\C(=N/S(=O)(=O)c1ccc(Cl)cc1)N1CC(c2ccccc2)C(c2ccc(Cl)cc2)=N1 (stereo not drawn) next?
Output line: > 1000 nM
